target: 5-hydroxytryptamine receptor 7 (Rattus norvegicus, UniProt P32305); test: Displacement of [3H]LSD from rat recombinant 5HT7 receptor expressed in HEK293 cells
Sequence (P32305 whole entry): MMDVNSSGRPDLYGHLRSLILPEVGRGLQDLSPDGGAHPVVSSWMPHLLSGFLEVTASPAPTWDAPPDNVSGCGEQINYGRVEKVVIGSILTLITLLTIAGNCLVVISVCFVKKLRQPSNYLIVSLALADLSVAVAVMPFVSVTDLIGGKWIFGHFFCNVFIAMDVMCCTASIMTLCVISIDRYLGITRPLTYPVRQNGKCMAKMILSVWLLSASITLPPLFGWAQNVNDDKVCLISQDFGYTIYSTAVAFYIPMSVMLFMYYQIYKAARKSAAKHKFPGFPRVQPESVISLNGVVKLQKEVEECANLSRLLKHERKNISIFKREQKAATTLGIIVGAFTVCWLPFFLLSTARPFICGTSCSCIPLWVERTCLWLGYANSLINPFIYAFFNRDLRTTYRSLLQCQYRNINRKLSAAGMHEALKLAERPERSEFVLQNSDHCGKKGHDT
molecules and their reported pKi
Scale: negative log10 of molar concentration, which is what pKi denotes.

COc1ccc2oc(N3CCN(CCCCCC(=O)NC4CCCc5ccccc54)CC3)nc2c1 (stereo not given) ... 6.15
O=C(CCCCCN1CCN(c2noc3ccccc23)CC1)NC1CCCc2ccccc21 (stereo not given) ... 6.90
O=C(CCCCCN1CCN(c2nc3ccccc3[nH]2)CC1)NC1CCCc2ccccc21 (stereo not given) ... 6.45

Note: attention shifts to another entry.
Ask: Reported pKi, molecule O=C(CCCCCN1CCN(c2nc3ccccc3o2)CC1)NC1CCCc2ccccc21 (stereo not given) : ____
Reply: 6.09
